Values compiled from patent US9962453B2.

- assay.remarks: Particle size measurement (dynamic light scattering) and visual solubility in aqueous solutions; note: unit not given here
- measurement.context: 2 mg net mass/ml in water, pH 3.1 to 4.1, 20 °C
Marks after values point to notes of the source that are not given here.
quantity.name: particle size, Water

Ac-LRLLHAALALAAHLLRLL-NH2 [Peptide 8, Ac-LRLLHAALALAAHLLRLL-NH2]; INS.
Ac-LRLLAAHLALHAALLRLL-NH2 [Peptide 10, Ac-LRLLAAHLALHAALLRLL-NH2]; INS.
Ac-RRLKKAKLKLKAKKLRRL-NH2 [Peptide 19, Ac-RRLKKAKLKLKAKKLRRL-NH2]; 0*
Ac-LRLLPAHLALHAPLLRLL-NH2 [Peptide 9, Ac-LRLLPAHLALHAPLLRLL-NH2]; 0*
Ac-RRLLHAKLALKAHLLRRL-NH2 [Peptide 17, Ac-RRLLHAKLALKAHLLRRL-NH2]; 0*
Ac-RRLLPAHLALHAPLLRRL-NH2 [Peptide 14, Ac-RRLLPAHLALHAPLLRRL-NH2]; 0*
Ac-RRLLHALLALLAHLLRRL-NH2 [Peptide 11, Ac-RRLLHALLALLAHLLRRL-NH2]; 0*

Briefly, particle size, Water measured for Ac-RRLLPAPLALPAPLLRRL-NH2 [Peptide 1, Ac-RRLLPAPLALPAPLLRRL-NH2] : 0*

====

- assay.remarks: Particle size measurement (dynamic light scattering) and visual solubility in aqueous solutions; note: unit not given here
- measurement.context: 2 mg net mass/ml in 0.9% sodium chloride in 28 mM L-histidine, pH 5.9 to 6.3
Marks after values point to notes of the source that are not given here.
quantity.name: particle size, HIST/NaCl

Ac-RRLLHAHLALHAHLLRRL-NH2 [Peptide 16, Ac-RRLLHAHLALHAHLLRRL-NH2]; 1.83*
Ac-RRLLHALLALLAHLLRRL-NH2 [Peptide 11, Ac-RRLLHALLALLAHLLRRL-NH2]; INS.
Ac-RRLLHAALALAAHLLRRL-NH2 [Peptide 13, Ac-RRLLHAALALAAHLLRRL-NH2]; 2.7*
Ac-RRLLPAALALAAPLLRRL-NH2 [Peptide 2, Ac-RRLLPAALALAAPLLRRL-NH2]; 0*
Ac-RRLLPALLALLAPLLRRL-NH2 [Peptide 3, Ac-RRLLPALLALLAPLLRRL-NH2]; 0*

Give me particle size, HIST/NaCl for each of these substances, listed below.
1. Ac-RRLLHAKLALKAHLLRRL-NH2 [Peptide 17, Ac-RRLLHAKLALKAHLLRRL-NH2]
2. Ac-LRLLHALLALLAHLLRLL-NH2 [Peptide 6, Ac-LRLLHALLALLAHLLRLL-NH2]
3. H-K(Ac)RRLLHAHLALHAHLLRRLK(Ac)-NH2 [Peptide 16′, K(Ac)RRLLHAHLALHAHLLRRLK(Ac)-NH2]
4. Ac-RRLKKAKLKLKAKKLRRL-NH2 [Peptide 19, Ac-RRLKKAKLKLKAKKLRRL-NH2]
5. Ac-RRLLPAPLALPAPLLRRL-NH2 [Peptide 1, Ac-RRLLPAPLALPAPLLRRL-NH2]
6. Ac-LRLLHAALALAAHLLRLL-NH2 [Peptide 8, Ac-LRLLHAALALAAHLLRLL-NH2]
7. Ac-LRLLHAPLALPAHLLRLL-NH2 [Peptide 7, Ac-LRLLHAPLALPAHLLRLL-NH2]
8. Ac-RRLLHAPLALPAHLLRRL-NH2 [Peptide 12, Ac-RRLLHAPLALPAHLLRRL-NH2]

Solution:
1: 0*; 2: INS.; 3: 2.3*; 4: 0*; 5: 0.87*; 6: INS.; 7: INS.; 8: 0*

====

- assay.remarks: Particle size measurement (dynamic light scattering) and visual solubility in aqueous solutions; note: unit not given here
- measurement.context: 2 mg net mass/ml in 0.9% sodium chloride, pH 3.3 to 4.2
Marks after values point to notes of the source that are not given here.
quantity.name: particle size, NaCl

Past entries and their recorded results:
H-K(Ac)RRLLHAHLALHAHLLRRLK(Ac)-NH2 [Peptide 16′, K(Ac)RRLLHAHLALHAHLLRRLK(Ac)-NH2]; 0*
Ac-RRLLHAALALAAHLLRRL-NH2 [Peptide 13, Ac-RRLLHAALALAAHLLRRL-NH2]; 2.2*
Ac-LRLLHAALALAAHLLRLL-NH2 [Peptide 8, Ac-LRLLHAALALAAHLLRLL-NH2]; INS.
Ac-RRLLHAHLALHAHLLRRL-NH2 [Peptide 16, Ac-RRLLHAHLALHAHLLRRL-NH2]; 0*
Ac-RRLLKAKLALKAKLLRRL-NH2 [Peptide 18, Ac-RRLLKAKLALKAKLLRRL-NH2]; 0*

Look up particle size, NaCl for the entries below, preserving their order.
1. Ac-RRLLAAPLALPAALLRRL-NH2 [Peptide 5, Ac-RRLLAAPLALPAALLRRL-NH2]
2. Ac-LRLLHAPLALPAHLLRLL-NH2 [Peptide 7, Ac-LRLLHAPLALPAHLLRLL-NH2]
3. Ac-RRLLHAPLALPAHLLRRL-NH2 [Peptide 12, Ac-RRLLHAPLALPAHLLRRL-NH2]

Solution:
["1.6*", "0*", "0*"]

Can you give me particle size, NaCl for all of these, one by one?
1. Ac-RRLLPAHLALHAPLLRRL-NH2 [Peptide 14, Ac-RRLLPAHLALHAPLLRRL-NH2]
2. Ac-LRLLAAHLALHAALLRLL-NH2 [Peptide 10, Ac-LRLLAAHLALHAALLRLL-NH2]
3. Ac-RRLLPAPLALPAPLLRRL-NH2 [Peptide 1, Ac-RRLLPAPLALPAPLLRRL-NH2]
4. Ac-LRLLHALLALLAHLLRLL-NH2 [Peptide 6, Ac-LRLLHALLALLAHLLRLL-NH2]

Solution:
0*
INS.
0*
INS.

====

Give particle size, PBS for every item shown.
- assay.remarks: Particle size measurement (dynamic light scattering) and visual solubility in aqueous solutions; note: unit not given here
- measurement.context: 2 mg net mass/ml in 1× PBS, pH 6.9 to 7.5
Marks after values point to notes of the source that are not given here.

Worked examples follow.
Ac-RRLLAAPLALPAALLRRL-NH2 [Peptide 5, Ac-RRLLAAPLALPAALLRRL-NH2]; 1.35*
Ac-RRLLLAPLALPALLLRRL-NH2 [Peptide 4, Ac-RRLLLAPLALPALLLRRL-NH2]; 2.38*

Here is the next item to consider.
Field particle size, PBS (entry Ac-RRLLHAALALAAHLLRRL-NH2 [Peptide 13, Ac-RRLLHAALALAAHLLRRL-NH2] ) reads 2.3*

====

- assay.remarks: Particle size measurement (dynamic light scattering) and visual solubility in aqueous solutions; note: unit not given here
- measurement.context: 2 mg net mass/ml in 1× PBS, pH 6.9 to 7.5
Marks after values point to notes of the source that are not given here.
quantity.name: particle size, PBS

Completed entries (count: 4):
H-K(Ac)RRLLHAHLALHAHLLRRLK(Ac)-NH2 [Peptide 16′, K(Ac)RRLLHAHLALHAHLLRRLK(Ac)-NH2]; 2.9*
Ac-LRLLPAHLALHAPLLRLL-NH2 [Peptide 9, Ac-LRLLPAHLALHAPLLRLL-NH2]; INS.
Ac-LRLLHALLALLAHLLRLL-NH2 [Peptide 6, Ac-LRLLHALLALLAHLLRLL-NH2]; INS.
Ac-RRLLPALLALLAPLLRRL-NH2 [Peptide 3, Ac-RRLLPALLALLAPLLRRL-NH2]; 3.37*

Items follow; give particle size, PBS for each.
1. Ac-LRLLHAALALAAHLLRLL-NH2 [Peptide 8, Ac-LRLLHAALALAAHLLRLL-NH2]
2. Ac-RRLLAAHLALHAALLRRL-NH2 [Peptide 15, Ac-RRLLAAHLALHAALLRRL-NH2]
3. Ac-LRLLAAHLALHAALLRLL-NH2 [Peptide 10, Ac-LRLLAAHLALHAALLRLL-NH2]
4. Ac-RRLLHAKLALKAHLLRRL-NH2 [Peptide 17, Ac-RRLLHAKLALKAHLLRRL-NH2]
5. Ac-RRLKKAKLKLKAKKLRRL-NH2 [Peptide 19, Ac-RRLKKAKLKLKAKKLRRL-NH2]
6. Ac-RRLLKAKLALKAKLLRRL-NH2 [Peptide 18, Ac-RRLLKAKLALKAKLLRRL-NH2]

Solution:
1. INS.
2. 360.7*
3. INS.
4. 0*
5. 0*
6. 0*

====

- assay.remarks: Particle size measurement (dynamic light scattering) and visual solubility in aqueous solutions; note: unit not given here
- measurement.context: 2 mg net mass/ml in 0.9% sodium chloride in 28 mM L-histidine, pH 5.9 to 6.3
Marks after values point to notes of the source that are not given here.
quantity.name: particle size, HIST/NaCl

// known answers, use as guide
Ac-RRLLAAPLALPAALLRRL-NH2 [Peptide 5, Ac-RRLLAAPLALPAALLRRL-NH2]; 3.3*
Ac-RRLLAAHLALHAALLRRL-NH2 [Peptide 15, Ac-RRLLAAHLALHAALLRRL-NH2]; 2.66*
Ac-LRLLAAHLALHAALLRLL-NH2 [Peptide 10, Ac-LRLLAAHLALHAALLRLL-NH2]; INS.
Ac-RRLLLAPLALPALLLRRL-NH2 [Peptide 4, Ac-RRLLLAPLALPALLLRRL-NH2]; 0*
Ac-LRLLPAHLALHAPLLRLL-NH2 [Peptide 9, Ac-LRLLPAHLALHAPLLRLL-NH2]; INS.
Ac-RRLLPAHLALHAPLLRRL-NH2 [Peptide 14, Ac-RRLLPAHLALHAPLLRRL-NH2]; 0*

Okay, next one:
Entry Ac-RRLLKAKLALKAKLLRRL-NH2 [Peptide 18, Ac-RRLLKAKLALKAKLLRRL-NH2] — recorded particle size, HIST/NaCl = 0*
